Ref: paper PMC12136037

tested-system: ~100 representative kinases (Homo sapiens, UniProt Q8TDX7)
Construct: Recombinant protein kinase domains with a concentration of 2 μM
Sequence (Q8TDX7 whole entry, the tested form may be a part): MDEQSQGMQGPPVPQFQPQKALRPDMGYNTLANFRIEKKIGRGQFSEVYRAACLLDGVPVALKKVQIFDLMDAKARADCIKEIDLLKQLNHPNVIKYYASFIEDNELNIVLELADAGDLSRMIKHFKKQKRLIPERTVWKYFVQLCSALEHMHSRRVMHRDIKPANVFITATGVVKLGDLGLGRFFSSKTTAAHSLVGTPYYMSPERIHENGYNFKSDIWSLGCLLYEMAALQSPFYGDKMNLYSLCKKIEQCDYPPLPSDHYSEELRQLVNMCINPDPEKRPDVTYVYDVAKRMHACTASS
assay-protocol: DSF 100 kinase selectivity screen;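 note: compound tested at 20 µM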
Format: binding
condition-info: protein NEK7; average of three replicates
parameter: dTm (K)

> print(dat)
                                   compound  parameter    val
1  COc1cc(C(=O)N2CCOCC2)c(F)cc1Nc1nc(N(C)C)c2c(Cl)c[nH]c2n1 [Compound 36]        dTm  -0.65
2  COc1cc(S(C)(=O)=O)ccc1Nc1nc(N(C)C)c2c(Cl)c[nH]c2n1 [Compound 37]        dTm  -0.25
3  CCc1ccc(NC(=O)C2(C(=O)Nc3cccc(-c4c[nH]c5ncnc(N6CCOCC6)c45)c3)CC2)cc1 [Compound 15]        dTm  -0.42

---

tested-system: ~100 representative kinases (Homo sapiens)
Construct: Recombinant protein kinase domains with a concentration of 2 μM
assay-protocol: DSF 100 kinase selectivity screen;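 note: compound tested at 20 µM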
Type: binding
condition-info: Protein AKT3; average of three replicates
parameter: dTm (K)

> print(dat)
                         chemical.structure    val
1  CC(=O)N1CCN(c2nc(Cl)nc3[nH]cc(-c4cccc(NC(=O)Nc5cc(C(C)(C)C)nn5-c5ccc(C)cc5)c4)c23)CC1  -0.49
2  O=C(Nc1cc(F)cc(Br)c1)C1(C(=O)Nc2cccc(-c3c[nH]c4ncnc(N5CCOCC5)c34)c2)CC1   0.53
3  O=C(Nc1cccc(-c2c[nH]c3ncnc(N4CCOCC4)c23)c1)C1(C(=O)Nc2ccc(F)c(F)c2)CC1   0.71
4  COc1cc(S(C)(=O)=O)ccc1Nc1nc(N(C)C)c2c(Cl)c[nH]c2n1  -0.25

---

As shown below, each of these compounds has a reported dTm value.
tested-system: ~100 representative kinases (Homo sapiens, UniProt Q9Y6E0)
Construct: Recombinant protein kinase domains with a concentration of 2 μM
Sequence (Q9Y6E0 whole entry, the tested form may be a part): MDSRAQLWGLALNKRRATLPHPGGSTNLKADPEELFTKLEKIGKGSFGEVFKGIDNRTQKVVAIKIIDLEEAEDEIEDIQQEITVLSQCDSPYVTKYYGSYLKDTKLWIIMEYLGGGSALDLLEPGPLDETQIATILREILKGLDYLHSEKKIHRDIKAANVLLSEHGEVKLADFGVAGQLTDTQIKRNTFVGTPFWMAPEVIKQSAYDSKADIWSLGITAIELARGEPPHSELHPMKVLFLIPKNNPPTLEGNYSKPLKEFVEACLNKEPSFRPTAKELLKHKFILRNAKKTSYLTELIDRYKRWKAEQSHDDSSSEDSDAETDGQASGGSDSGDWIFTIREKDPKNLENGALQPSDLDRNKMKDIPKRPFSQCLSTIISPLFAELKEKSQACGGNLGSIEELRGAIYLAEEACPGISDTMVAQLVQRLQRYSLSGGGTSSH
assay-protocol: DSF 100 kinase selectivity screen;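 note: compound tested at 20 µM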
Assay type: binding
condition-info: protein MST3; average of three replicates
parameter: dTm

> print(dat)
                                   compound  parameter      val
1  COc1cc(C(=O)N2CCOCC2)c(F)cc1Nc1nc(N(C)C)c2c(Cl)c[nH]c2n1 [Compound 36]        dTm  -3.75 K
2  COc1cc(S(C)(=O)=O)ccc1Nc1nc(N(C)C)c2c(Cl)c[nH]c2n1 [Compound 37]        dTm  -2.45 K
3  COc1ccc(NC(=O)C2(C(=O)Nc3cccc(-c4c[nH]c5ncnc(N6CCOCC6)c45)c3)CC2)cc1 [Compound 16]        dTm   1.58 K
4  Cc1cc(F)ccc1NC(=O)C1(C(=O)Nc2cccc(-c3c[nH]c4ncnc(N5CCOCC5)c34)c2)CC1 [Compound 24]        dTm   3.82 K
5  O=C(Nc1ccccc1)C1(C(=O)Nc2cccc(-c3c[nH]c4ncnc(N5CCOCC5)c34)c2)CC1 [Compound 12]        dTm   3.58 K

---

tested-system: ~100 representative kinases (Homo sapiens, UniProt Q6PHR2)
Construct: Recombinant protein kinase domains with a concentration of 2 μM
Sequence (Q6PHR2 1-472): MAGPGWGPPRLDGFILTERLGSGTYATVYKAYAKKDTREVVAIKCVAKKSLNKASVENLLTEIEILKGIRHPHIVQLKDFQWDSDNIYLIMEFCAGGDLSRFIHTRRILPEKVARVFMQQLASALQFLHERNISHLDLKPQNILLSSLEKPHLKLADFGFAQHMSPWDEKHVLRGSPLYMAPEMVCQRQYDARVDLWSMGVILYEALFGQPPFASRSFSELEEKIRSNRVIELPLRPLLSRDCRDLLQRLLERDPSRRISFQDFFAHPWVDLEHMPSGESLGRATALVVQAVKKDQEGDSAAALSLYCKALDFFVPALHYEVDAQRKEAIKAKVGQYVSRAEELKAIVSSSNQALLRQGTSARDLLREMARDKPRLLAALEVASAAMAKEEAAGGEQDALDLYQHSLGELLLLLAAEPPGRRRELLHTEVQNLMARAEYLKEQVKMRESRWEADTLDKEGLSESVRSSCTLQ
assay-protocol: DSF 100 kinase selectivity screen;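 note: compound tested at 20 µM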
Type: binding
condition-info: Protein ULK3; DSF; average of three replicates
parameter: dTm (K)

> print(dat)
                                   compound  parameter    val
1  CCc1ccc(NC(=O)C2(C(=O)Nc3cccc(-c4c[nH]c5ncnc(N6CCOCC6)c45)c3)CC2)cc1        dTm   8.77
2  COc1cc2c(Oc3ccc(NC(=O)C4(C(=O)Nc5ccc(F)cc5)CC4)cc3F)ccnc2cc1OCCCN1CCOCC1 [Foretinib, reference compound]        dTm  14.26
3  CC(=O)N1CCN(c2nc(Cl)nc3[nH]cc(-c4cccc(NC(=O)Nc5cc(C(C)(C)C)nn5-c5ccc(C)cc5)c4)c23)CC1        dTm   0.92
4  CCSc1nc(NC)c2c(-c3cccc(NC(=O)Nc4cc(C(C)(C)C)nn4-c4ccc(C)cc4)c3)c[nH]c2n1        dTm   0.44
